# assayNotes: qHTS assay to identify small molecule antagonists of the constitutive androstane receptor (CAR) signaling pathway - cell viability counter screen (AID 1224837); further: nearly all actives have a fitted effect of over 45% in size
# experimentalParameters: HepG2-CYP2B6-hCAR viability, CellTiter-Fluor, 23 h, co-treated with 50 nM CITCO; series mostly up to 92.4 µM
Results filed as inconclusive are left out. Calls of active or inactive are those of the source. The call rests on the fitted dose curve; in most records, active means well fitted cell-killing curve with a large enough effect in the repeat runs; inconclusive means weak or mixed curves, or effect the other way; inactive means flat fitted curve, though single readings scatter.
Reply using exactly one outcome from True for active, False for inactive

These solved cases illustrate the format of a correct answer.
{"compound": "CCN(CC)Cc1nccn1-c1ccc([N+](=O)[O-])cc1C(=O)c1ccccc1Cl", "cat": "True"}
{"compound": "C=C(C)C(=O)[O][Sn]([CH2]CCC)([CH2]CCC)[CH2]CCC", "cat": "True"}
{"compound": "CCC1COC(Cn2cncn2)(c2ccc(Cl)cc2Cl)O1 (stereo unspecified)", "cat": "False"}
{"compound": "CC(C)[C@@H](Nc1ccc(C(F)(F)F)cc1Cl)C(=O)OC(C#N)c1cccc(Oc2ccccc2)c1 (stereo partly specified)", "cat": "False"}
{"compound": "CO/N=C(\\C(=O)OC)c1ccccc1CO/N=C(\\C)c1cccc(C(F)(F)F)c1", "cat": "False"}

Record lookup: outcome of this test for `Nc1nc(N)nc(Cl)n1` ?
False
